Listed compounds paired with reported AC50
# study.system: thyroid hormone receptor (endogenous TRα and TRβ)
# test.description: GH3-TRE-Antag primary qHTS, luciferase reporter, antagonist mode with 1 nM T3 (TOX21_TR_LUC_GH3_Antagonist, aeid 804)
# Format: cell-based, rat
# experimental.setup: antagonist mode, 1 nM T3; read-out: GH3-TRE-Antag AC50
Where a name gives a salt, the structure may show the parent alone.

>  <compound>
O=C1NCN(c2ccccc2)C12CCN(CCCOc1ccc(F)cc1)CC2 [AMI-193, reference compound]

>  <output.unit>
µM

>  <AC50>
15.8

$$$$
>  <compound>
CCCCCCCCCCCCn1cc[n+](C)c1.[I-] [1-Dodecyl-3-methylimidazolium iodide]

>  <output.unit>
µM

>  <AC50>
1.33

$$$$
>  <compound>
CCOC(=O)C1=C(COCCN)NC(C)=C(C(=O)OC)C1c1ccccc1Cl (stereo not shown) [Amlodipine besylate, reference compound]

>  <output.unit>
µM

>  <AC50>
4.56

$$$$
>  <compound>
COC(=O)C1=C(C)NC(C)=C(C(=O)OCCN2CCN(C(c3ccccc3)c3ccccc3)CC2)C1c1cccc([N+](=O)[O-])c1 (stereo not shown) [Manidipine dihydrochloride]

>  <output.unit>
µM

>  <AC50>
7.4

$$$$

---

# test.description: in vitro
# experimental.setup: rat, gh3-tre-luc cells, AC50 (uM) modified / 1000
Listed compounds paired with reported CC50 at 24 h
observed.property: CC50 at 24 h

>  <compound>
C=C1[C@@H]2CC[C@@H](C2)C1(C)C [Camphene]

>  <test.value>
> 90 µM

$$$$
>  <compound>
COc1cc2c(cc1OC)[C@H]1CC(=O)[C@H](CC(C)C)CN1CC2 (racemic) [Tetrabenazine]

>  <test.value>
> 50 µM

$$$$
>  <compound>
CCOC(=O)CN[C@@H](C(=O)N1CC[C@H]1C(=O)NCc1ccc(/C(N)=N\O)cc1)C1CCCCC1 [Ximelagatran]

>  <test.value>
> 50 µM

$$$$
>  <compound>
CC1(C)S[C@@H]2[C@H](NC(=O)Cc3ccccc3)C(=O)N2[C@H]1C(=O)O [Penicillin G potassium]

>  <test.value>
> 50 µM

$$$$
>  <compound>
CC(=O)OC/C=C(C)/C=C/C=C(C)/C=C/C1=C(C)CCCC1(C)C [Retinol acetate]

>  <test.value>
> 50 µM

$$$$
>  <compound>
CC[C@]1(O)C[C@H]2CN(CCc3c([nH]c4ccccc34)[C@@](C(=O)OC)(c3cc4c(cc3OC)N(C=O)[C@H]3[C@@](O)(C(=O)OC)[C@H](OC(C)=O)[C@]5(CC)C=CCN6CC[C@]43[C@@H]65)C2)C1 [Vincristine]

>  <test.value>
0.12 µM

$$$$
>  <compound>
CC(C)(C)c1ccccc1 [tert-Butylbenzene]

>  <test.value>
> 90 µM

$$$$

---

# test.description: in vitro
# experimental.setup: rat, gh3-tre-luc cells, AC50 (uM) modified / 1000
Where a name gives a salt, the structure may show the parent alone.
Listed molecules paired with reported CC50 at 24 h
observed.property: CC50 at 24 h

>  <molecule>
CC(C)(C)CC(=O)OCC(=O)[C@@]12OC(C)(C)O[C@@H]1C[C@H]1[C@@H]3CCC4=CC(=O)C=C[C@]4(C)[C@@]3(F)[C@@H](O)C[C@@]12C [Triamcinolone hexacetonide]

>  <test.value>
> 50 µM

$$$$
>  <molecule>
O=C1C[C@@H]2OCC=C3CN4CC[C@]56c7ccccc7N1[C@H]5[C@H]2[C@H]3C[C@H]46

>  <test.value>
> 50 µM

$$$$
>  <molecule>
O=C(c1ccccc1O)c1ccccc1O [2,2'-Dihydroxybenzophenone]

>  <test.value>
> 90 µM

$$$$
>  <molecule>
CC(C)CN(C[C@@H](O)[C@H](Cc1ccccc1)NC(=O)O[C@H]1CO[C@H]2OCC[C@H]21)S(=O)(=O)c1ccc(N)cc1

>  <test.value>
> 50 µM

$$$$
>  <molecule>
CC(C)=CCC/C(C)=C/C(=O)O

>  <test.value>
> 90 µM

$$$$
>  <molecule>
N#Cc1cccc(C#N)c1

>  <test.value>
> 90 µM

$$$$
>  <molecule>
CC(=O)OC[C@H]1O[C@@H](O[C@H]2[C@H](O)[C@@H](OC(=O)c3ccccc3C(=O)O)[C@H](O)O[C@@H]2COC(C)=O)[C@H](O)[C@@H](OC(=O)c2ccccc2C(=O)O)[C@@H]1O [Cellulose acetate phthalate]

>  <test.value>
> 50 µM

$$$$
>  <molecule>
CCc1nccnc1CC

>  <test.value>
> 30 µM

$$$$
>  <molecule>
NC(CS)C(=O)O (racemic)

>  <test.value>
> 50 µM

$$$$
>  <molecule>
CNC(=O)c1cc(Oc2ccc(NC(=O)Nc3ccc(Cl)c(C(F)(F)F)c3)cc2)ccn1 [Sorafenib tosylate]

>  <test.value>
9.89 µM

$$$$
>  <molecule>
CCCCC(CC)(CO)CO

>  <test.value>
> 90 µM

$$$$
>  <molecule>
N[C@@H](C=O)[C@@H](O)[C@@H](O)[C@H](O)CO [Galactosamine hydrochloride]

>  <test.value>
> 90 µM

$$$$
>  <molecule>
CNC(=O)ON=C(C)SC

>  <test.value>
> 90 µM

$$$$
>  <molecule>
O=C1CCCCCCCCCCCC(=O)OCCO1

>  <test.value>
> 90 µM

$$$$
>  <molecule>
O=C(O)c1cc2cc(Cc3cccnc3)ccc2o1 [Furegrelate sodium]

>  <test.value>
> 50 µM

$$$$
>  <molecule>
C=CC(=O)OCC[N+](C)(C)C

>  <test.value>
> 90 µM

$$$$
>  <molecule>
Nc1ccc(-c2ccc(N)c(N)c2)cc1N

>  <test.value>
64.7 µM

$$$$
>  <molecule>
CCOC(=O)CCC(C)=O [Ethyl levulinate]

>  <test.value>
> 90 µM

$$$$
>  <molecule>
CC1(C)C[C@@H]1C(=O)N/C(=C\CCCCSC[C@H](N)C(=O)O)C(=O)O [Cilastatin sodium]

>  <test.value>
> 50 µM

$$$$
>  <molecule>
c1ccc2c(c1)CCc1ccccc1N2 [10,11-Dihydro-5H-dibenz[b,f]azepine]

>  <test.value>
> 90 µM

$$$$
>  <molecule>
N#CSc1ccc(N)c([N+](=O)[O-])c1

>  <test.value>
51.1 µM

$$$$
>  <molecule>
CCC(=O)OC [Methyl propanoate]

>  <test.value>
> 90 µM

$$$$
>  <molecule>
COC(=O)CCC(=O)CN [Methyl aminolevulinate hydrochloride]

>  <test.value>
> 50 µM

$$$$
>  <molecule>
CC(C)=CCC/C(C)=C/C=O

>  <test.value>
> 90 µM

$$$$
>  <molecule>
NC(Cc1ccc(F)cc1)C(=O)O (racemic)

>  <test.value>
2.98 µM

$$$$
>  <molecule>
CN(C)C(=O)Nc1ccc(Cl)cc1

>  <test.value>
> 90 µM

$$$$
>  <molecule>
C[C@@H](O)[C@H]1C(=O)N2C(C(=O)O)=C(S[C@@H]3CN[C@H](C(=O)N(C)C)C3)[C@H](C)[C@H]12

>  <test.value>
> 50 µM

$$$$
>  <molecule>
O=C1OC(O)C(C(Cl)Cl)=C1Cl (centres unmarked)

>  <test.value>
35 µM

$$$$
>  <molecule>
O=C(/C=C/c1ccccc1)OCc1ccccc1 [Benzyl cinnamate]

>  <test.value>
> 90 µM

$$$$
>  <molecule>
CCCCCCCCCCCCCN1CC(C)OC(C)C1 (centres unmarked)

>  <test.value>
> 90 µM

$$$$
>  <molecule>
CC(=O)OC1CCCCC1C(C)(C)C (centres unmarked) [2-tert-Butylcyclohexyl acetate]

>  <test.value>
> 90 µM

$$$$
>  <molecule>
CCCC(=O)OC [Methyl butyrate]

>  <test.value>
> 90 µM

$$$$
>  <molecule>
Cn1c(=O)cc(Oc2ccc(F)cc2F)c2cnc(NCC(C)(C)O)nc21

>  <test.value>
> 90 µM

$$$$
>  <molecule>
CCCCCCCCCCCCCCCC(=O)OCC(COC(=O)CCCCCCCCCCCCCCC)OC(=O)CCCCCCCCCCCCCCC

>  <test.value>
> 50 µM

$$$$
>  <molecule>
CSc1nnc(C(C)(C)C)c(=O)n1N

>  <test.value>
> 90 µM

$$$$
>  <molecule>
O=S(=O)(O)CC(O)CCl (centres unmarked)

>  <test.value>
> 90 µM

$$$$
>  <molecule>
CNC(=N)NCCC[C@H](N)C(=O)O [Tilarginine acetate]

>  <test.value>
> 50 µM

$$$$
>  <molecule>
OCCOc1cccc(OCCO)c1 [2,2'-[Benzene-1,3-diylbis(oxy)]diethanol]

>  <test.value>
> 90 µM

$$$$
